Target: rSmMDH1
Construct: gene SmMDH1
Assay: absorbance […] nm, Lineweaver-Burk secondary plot of […]/Vmax
Type: biochemical, Spirometra mansoni
Conditions: forward reaction (oxaloacetate reduction, NADH); 100 mM Tris-HCl pH 7.5, 37 °C; reversible, binds enzyme-substrate complex
ATTRIBUTE MEASURED: Ki (µM)
Quick note: give the figure in µM, leave out the unit.

// query Need Ki, item NC(=S)c1cccnc1 [thionicotinamide]
// result 144
